- Test system: Foxtail, Giant (giant foxtail, Setaria faberi)
- assay_details: Test A preemergence, Foxtail, Giant
- Assay type: in vivo
- conditions: Preemergence, 125 g ai/ha; visual injury on 0 to 100 scale (0 no effect, 100 complete control), approximately 10 days
- Text: Seeds of plant species selected from barnyardgrass (Echinochloa crus-galli), kochia (Bassia scoparia), ragweed (common ragweed, Ambrosia artemisiifolia), Ryegrass, Italian (Italian ryegrass, Lolium multiflorum), Foxtail, Giant (giant foxtail, Setaria faberi), and pigweed (Amaranthus retroflexus) were planted into a blend of loam soil and sand and treated preemergence with a directed soil spray using test chemicals formulated in a non-phytotoxic solvent mixture which included a surfactant. […]
property_label: Foxtail, Giant plant response rating
Form: value (number only, do not type unit).

Use these answered entries as a reference point.
                                   compound  reported
0  Cc1cc(C)c(C(=O)N2CCC(C#N)CC2)cc1NS(=O)(=O)C(F)(F)F [Compound 162]        90
1  COC1CCCN(C(=O)c2cc(NS(=O)(=O)C(F)(F)F)c(C)cc2C)CC1 (stereo not shown) [Compound 137]       100
2  Cc1cc(C)c(-c2cc(Cl)nn(C)c2=O)cc1NS(=O)(=O)C(F)(F)F [Compound 72]       100
3  CCc1cc(-c2cc(N(S(=O)(=O)C(F)(F)F)S(=O)(=O)C(F)(F)F)c(C)cc2C)c(=O)n(C)n1 [Compound 28]        30
4  Cc1cc(C(F)(F)F)c(NS(=O)(=O)C(F)(F)F)cc1C(=O)N1CCCCC1 [Compound 165]        80

Read the entry COc1cc(-c2cc(N(S(=O)(=O)C(F)(F)F)S(=O)(=O)C(F)(F)F)c(C)cc2C)c(=O)n(C)n1 [Compound 35] and write its reported Foxtail, Giant plant response rating.
60

Name the recorded Foxtail, Giant plant response rating of the compound listed here: C#CCN(CC#C)C(=O)c1cc(N(S(=O)(=O)C(F)(F)F)S(=O)(=O)C(F)(F)F)c(C)cc1C [Compound 181]
100

Name the recorded Foxtail, Giant plant response rating of the compound listed here: COC1CCCN(C(=O)c2cc(NS(=O)(=O)C(F)(F)F)c(C)cc2C)C1 (stereo not shown) [Compound 175]
100

Specify measured Foxtail, Giant plant response rating for Cc1cc(C(F)(F)F)c(C(=O)N(C)C)cc1NS(=O)(=O)C(F)(F)F [Compound 133] .
10

Return Foxtail, Giant plant response rating for the following compound: Cc1cc(C)c(C2=NOC3CCCC23)cc1NS(=O)(=O)C(F)(F)F (stereo not shown) [Compound 164]
90

Please look at this compound and report its Foxtail, Giant plant response rating: Cc1cc(C)c(C2=NOC3(C2)CC(C)CC(C)C3)cc1NS(=O)(=O)C(F)(F)F (single isomer, unassigned) [Compound 168]
0

Note Foxtail, Giant plant response rating for the compound shown: CCn1cc(-c2cc(NS(=O)(=O)C(F)(F)F)c(C)cc2C)c(=O)n(CC)c1=O [Compound 44]
100

Could you please provide reported Foxtail, Giant plant response rating for Cc1cc(C(=O)N2CCOC(C)(C)C2)cc(NS(=O)(=O)C(F)(F)F)c1Cl [Compound 2] ? Thanks!
80

State its Foxtail, Giant plant response rating for this compound: Cc1cc(C)c(-c2ccnn(CC(F)(F)F)c2=O)cc1NS(=O)(=O)C(F)(F)F [Compound 57]
100

Output Foxtail, Giant plant response rating of COc1c(Cl)nn(C)c(=O)c1-c1cc(NS(=O)(=O)C(F)(F)F)c(C)cc1C [Compound 64]
90

Tell me its Foxtail, Giant plant response rating given Cc1cc(C)c(N(S(=O)(=O)C(F)(F)F)S(=O)(=O)C(F)(F)F)cc1C1=NOC2(CCC3(CC2)OCCO3)C1 [Compound 136] as the entry.
100

// Input: Cc1cc(C)c(C2=NOC3CCCCC23)cc1NS(=O)(=O)C(F)(F)F (racemic) [Compound 125] . Output its Foxtail, Giant plant response rating only.
100
